Test: qHTS for Inhibitors of the Functional Ribonucleoprotein Complex (vRNP) of Lassa (LASV) Arenavirus: LASV Primary Screen - GLuc reporter signal (AID 1347082); further: nearly all actives have a fitted effect of over 60% in size
Settings: LASV minigenome vRNP, Gaussia luciferase reporter; series mostly up to 57.5 µM
Results filed as inconclusive are left out. Active and inactive are the calls of the source. The call rests on the fitted dose curve; tested in HEK293 reporter line.
Parameter call: string, one of active, inactive

Reference set, count: 3
INSERT INTO results (molecule, answer_label) VALUES
  ('CCCCS(=N)(=O)CC[C@H](N)C(=O)O (some centres not stated)', 'inactive'),
  ('NC1=NCCCC1', 'inactive'),
  ('O=C(OCc1ccccc1)c1ccccc1O', 'inactive');

Query :: # outcome recorded in this test, key = O=C1NCc2c1c1c3ccccc3[nH]c1c1[nH]c3ccccc3c21
Result :: inactive

Query :: Same read-out for OC[C@H]1O[C@H](n2cnc3c(N[C@H]4CCC[C@@H]4O)ncnc32)[C@H](O)[C@@H]1O ?
Result :: inactive

Query :: Same question, CC(C)(C)NCC(O)COc1cccc2[nH]c(=O)[nH]c12 (configuration not stated) this time
Result :: inactive

Query :: Try the molecule COc1ccc2c(=O)cc(-c3ccccc3)n(C)c2c1
Result :: inactive

Query :: Would you kindly repeat that for O=C1NC(=O)C(Cc2ccc(O)cc2)N1 (configuration not stated) ?
Result :: inactive

Query :: Same again, this time with CCOC(=O)c1cccc(C(=O)OCC)n1
Result :: inactive

Query :: Another molecule to look at: FC(F)c1nc2ccccc2n1-c1nc(N2CCOCC2)nc(N2CCOCC2)n1
Result :: active

Query :: Further, for CCCCCCCCCCCCC ?
Result :: inactive

Query :: How about COc1cc2c(cc1OC)CN(CCc1ccc(NC(=O)c3cc(OC)c(OC)cc3NC(=O)c3cnc4ccccc4c3)cc1)CC2 ?
Result :: inactive

----------
Assay: qHTS assay for small molecule antagonists of peroxisome proliferator-activated receptor delta signaling (AID 588535);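 further: cells co-treated with a PPAR-delta agonist as stimulator during compound exposure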
Conditions: HEK293T PPARd-UAS-bla, beta-lactamase FRET ratio, 18 h; 460 nm channel
Records with an inconclusive call do not appear.
This section presents compounds with their documented max response values.
Write the value in % as a bare number.

INSERT INTO assay_data (entry_smiles, recorded_number) VALUES
  ('CCOc1cc(C=O)ccc1O', -4.7);

Query :: Field request: max response | item: CC(=O)/C=C/c1ccccc1
Result :: 11.6

Query :: Now consider Cc1ccc(C)c2ccccc12 and answer again.
Result :: 22.6

Query :: Again, but for CCCCOP(=O)(O)OCCCC
Result :: 24.1

----------
Biological target: Cytochrome P450 2C19 (Homo sapiens) (UniProt P33261)
Sequence (P33261 whole entry, looked up): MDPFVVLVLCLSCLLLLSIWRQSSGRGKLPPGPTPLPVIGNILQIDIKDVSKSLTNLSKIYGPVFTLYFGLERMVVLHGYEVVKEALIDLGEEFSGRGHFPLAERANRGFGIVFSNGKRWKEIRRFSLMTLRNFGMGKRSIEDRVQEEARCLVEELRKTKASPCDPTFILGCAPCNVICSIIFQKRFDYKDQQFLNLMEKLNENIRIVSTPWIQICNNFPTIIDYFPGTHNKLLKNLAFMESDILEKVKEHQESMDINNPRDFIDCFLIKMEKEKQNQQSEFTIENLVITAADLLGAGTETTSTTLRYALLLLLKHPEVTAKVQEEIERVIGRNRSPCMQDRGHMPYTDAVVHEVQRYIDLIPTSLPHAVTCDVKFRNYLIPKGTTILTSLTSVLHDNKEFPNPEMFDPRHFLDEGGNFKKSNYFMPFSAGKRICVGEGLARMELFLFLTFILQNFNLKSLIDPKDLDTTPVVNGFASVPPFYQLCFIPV
Experiment: qHTS Assay for Inhibitors and Substrates of Cytochrome P450 2C19 (AID 899); further: nearly all actives have a fitted effect of over 60% in size
Conditions: recombinant CYP2C19, luciferin-H EGE luminescence; series mostly up to 57.1 µM
Results filed as inconclusive are left out. The source made the active and inactive calls. Calls follow the shape of the dose curve; as a rule, active = well fitted inhibition curve with a large enough effect; inconclusive = small, poorly fitted or top-dose-only effect; inactive = no such curve, though single readings can be large or run the other way.
The categories you may choose from are active, inactive

For orientation, consider the following solved cases.
INSERT INTO assay_data (entry_smiles, answer_label) VALUES
  ('COc1ccc(C[C@H]2NC[C@H](O)[C@@H]2OC(C)=O)cc1', 'active'),
  ('COc1ccc(CNC(=O)/C=C\c2ccc3[nH]cc(CCN(C)C)c3c2)cc1', 'inactive'),
  ('N[C@H](CP(=O)(O)O)C(=O)O', 'inactive'),
  ('C/C(=C\C=C/[C@@H](C)C(=O)O)[C@H]1CN[C@H](C(=O)O)[C@@H]1CC(=O)O', 'inactive'),
  ('NC[C@@H](CC(=O)O)c1ccc(Cl)cc1', 'inactive');

Next item in the queue.
Query :: Hey, what did the test say about CC1=C(O)C(=O)[C@H]2O[C@@H]2C1=O ?
Result :: active
